Molecular target: Chromo domain-containing protein 1 (Saccharomyces cerevisiae (strain ATCC 204508 / S288c) (Baker's yeast)) (UniProt P32657)
Sequence (P32657 whole entry, the tested form may be a part): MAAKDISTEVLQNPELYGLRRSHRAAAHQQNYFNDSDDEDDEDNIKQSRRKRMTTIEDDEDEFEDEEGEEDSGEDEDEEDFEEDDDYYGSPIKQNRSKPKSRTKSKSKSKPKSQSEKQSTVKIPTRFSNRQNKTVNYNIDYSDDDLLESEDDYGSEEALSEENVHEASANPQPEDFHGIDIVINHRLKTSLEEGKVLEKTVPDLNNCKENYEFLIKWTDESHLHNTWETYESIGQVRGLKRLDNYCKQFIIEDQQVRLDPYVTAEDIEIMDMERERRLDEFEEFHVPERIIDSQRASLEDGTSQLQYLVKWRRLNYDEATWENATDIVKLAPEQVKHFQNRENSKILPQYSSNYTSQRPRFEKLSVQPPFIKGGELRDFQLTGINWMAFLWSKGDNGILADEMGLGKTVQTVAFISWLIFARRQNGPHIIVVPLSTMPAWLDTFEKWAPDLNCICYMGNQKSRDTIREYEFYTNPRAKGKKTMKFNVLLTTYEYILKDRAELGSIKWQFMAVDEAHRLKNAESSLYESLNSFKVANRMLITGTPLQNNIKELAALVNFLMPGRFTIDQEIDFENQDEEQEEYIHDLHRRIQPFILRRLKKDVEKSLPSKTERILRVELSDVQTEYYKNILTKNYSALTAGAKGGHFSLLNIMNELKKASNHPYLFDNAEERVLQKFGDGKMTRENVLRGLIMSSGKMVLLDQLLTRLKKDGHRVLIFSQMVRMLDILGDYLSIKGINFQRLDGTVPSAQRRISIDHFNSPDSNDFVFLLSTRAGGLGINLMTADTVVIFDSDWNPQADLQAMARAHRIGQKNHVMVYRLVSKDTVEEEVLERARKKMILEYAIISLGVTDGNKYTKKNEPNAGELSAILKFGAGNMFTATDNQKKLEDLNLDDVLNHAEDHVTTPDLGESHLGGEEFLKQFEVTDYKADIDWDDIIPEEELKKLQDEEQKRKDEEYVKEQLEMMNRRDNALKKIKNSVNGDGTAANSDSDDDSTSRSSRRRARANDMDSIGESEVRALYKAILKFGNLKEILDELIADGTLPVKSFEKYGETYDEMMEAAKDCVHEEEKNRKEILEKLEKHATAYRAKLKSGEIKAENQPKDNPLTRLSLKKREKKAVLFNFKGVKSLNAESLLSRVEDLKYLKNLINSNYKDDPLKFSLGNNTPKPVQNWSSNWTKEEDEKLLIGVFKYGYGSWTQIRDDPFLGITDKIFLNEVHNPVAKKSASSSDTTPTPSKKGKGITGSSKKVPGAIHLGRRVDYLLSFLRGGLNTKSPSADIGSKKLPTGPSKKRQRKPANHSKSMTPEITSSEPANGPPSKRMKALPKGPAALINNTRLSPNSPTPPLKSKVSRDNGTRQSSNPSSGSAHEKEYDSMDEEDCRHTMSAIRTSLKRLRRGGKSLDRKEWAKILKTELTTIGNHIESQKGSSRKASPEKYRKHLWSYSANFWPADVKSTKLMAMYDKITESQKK
Experiment: ScCHD-1 Enzyme Inhibition Assay
Format: functional
Parameters: scale not given: in the data most compounds retested in dose-response had high values
Conditions: 30 µM
Please go through the items and note down their Percent Effect.
Answer format: numeric, % implied, no suffix.

**Q:** Percent Effect for CN(C)C(=O)Cc1nc(CN2CCCCC2Cn2cccn2)cs1 (configuration not stated) ?
**A:** -0.00308

**Q:** Percent Effect for O=C(NCCn1ccc(-c2ccncc2)n1)c1ccncc1 ?
**A:** -2.37

**Q:** Percent Effect for CC(C)C(=O)NCC(=O)N(C)C1CCCN(CCc2ccccc2)C1 (configuration not stated) ?
**A:** -5.28

**Q:** Percent Effect for CCn1ccnc1CN1CCCN(C(=O)c2cccn2C)CC1 ?
**A:** 31.3

**Q:** Percent Effect for Cc1ccc(S(=O)(=O)N2C[C@@H]3C[C@@H](NC(=O)C(C)(C)C)[C@@H]3C2)cc1 ?
**A:** -22.4

**Q:** Percent Effect for CCOc1ccc(Cl)c(C(=O)NCc2ccc(C(=O)NC)cc2)n1 ?
**A:** 0.666

**Q:** Percent Effect for CCn1cc(NC(=O)NCC(c2cccc(F)c2)N(C)C)cn1 (configuration not stated) ?
**A:** -5.78

**Q:** Percent Effect for COc1ccc(CNCc2ccnc(N3CCOCC3)c2)cc1OC ?
**A:** -7.91

**Q:** Percent Effect for Cc1noc(C2CCCN(C(=O)c3ccc(Br)cc3F)C2)n1 (configuration not stated) ?
**A:** -19.5

**Q:** Percent Effect for CN(Cc1ccc2c(c1)OCCO2)C(=O)Cn1cccnc1=O ?
**A:** -8.2

**Q:** Percent Effect for CC(C)Cc1noc(CN2CCC(NC(=O)c3cccs3)CC2)n1 ?
**A:** -6.14

**Q:** Percent Effect for Cc1cc(C2CCCN2C(=O)c2cc3c(s2)CCC3)on1 (configuration not stated) ?
**A:** -7.02

**Q:** Percent Effect for Cn1cccc1C(=O)N1CCCN(CCCc2ccccc2)CC1 ?
**A:** -3.52

**Q:** Percent Effect for CNC(=O)C1(CCCc2cccnc2)CCCCN1 (configuration not stated) ?
**A:** -15.7

**Q:** Percent Effect for CS(=O)(=O)N1CCc2nc(NC(=O)Nc3c(F)cccc3F)sc2C1 ?
**A:** 1.62

**Q:** Percent Effect for Cc1ccc(C(=O)N2CCN(S(C)(=O)=O)CC2)cc1N1CCNC1=O ?
**A:** -6.07

**Q:** Percent Effect for CCN(Cc1ccc2c(c1)OCCO2)C(=O)NC(C)Cn1ccnc1 (configuration not stated) ?
**A:** -7.71

**Q:** Percent Effect for O=C(NCCNc1ncccn1)C1CC(=O)N(CC(F)(F)F)C1 (configuration not stated) ?
**A:** -6.16

**Q:** Percent Effect for OC(COc1ccccc1)CN1CCc2c(ncn2C2CC2)C1 (configuration not stated) ?
**A:** -12.1

**Q:** Percent Effect for CN(Cc1ccc(F)cc1)[C@@H]1CN(C(=O)c2cccs2)C[C@H]1O ?
**A:** -21.9

**Q:** Percent Effect for CC(NC(=O)N1CCN(CCc2ccccc2)CC1)c1nncn1C (configuration not stated) ?
**A:** -8.2

**Q:** Percent Effect for COc1ccc(-c2ccnc3c2C(=O)CCC3)cc1 ?
**A:** -22.2

**Q:** Percent Effect for CC(C)CN1CCCn2nc(CNC(=O)c3cccnc3O)cc2C1 ?
**A:** -7.12

**Q:** Percent Effect for COCc1noc(C2(c3ccc(Br)cc3)CCOCC2)n1 ?
**A:** -3.06

**Q:** Percent Effect for CCN1CCC(NC(=O)CN2CCCC2Cn2cncn2)CC1 (configuration not stated) ?
**A:** -22.4

**Q:** Percent Effect for Cc1ccc(-c2noc(CN3CCOC(Cn4cncn4)C3)n2)cc1 (configuration not stated) ?
**A:** 5.54

**Q:** Percent Effect for CN(C)C[C@H]1OC[C@@H]2CCN(S(=O)(=O)c3cccs3)C[C@@H]21 ?
**A:** 19.4

**Q:** Percent Effect for CC(C)CC(CNC(=O)NCc1cc[nH]n1)N1CCOCC1 (configuration not stated) ?
**A:** 25

**Q:** Percent Effect for O=S1(=O)N=C(SCc2ccc(Cl)cc2)Nc2ccc(F)cc21 ?
**A:** -10.5

**Q:** Percent Effect for CN1CCc2c(C#N)c(NCc3ccco3)n3cnnc3c2C1 ?
**A:** -17.9

**Q:** Percent Effect for Cc1oc(C)c(C(=O)NCc2ccccc2S(=O)(=O)N(C)C)c1C ?
**A:** -5.82

**Q:** Percent Effect for O=C(Cc1ccccn1)N1C[C@@H]2CC[C@H](C1)N(Cc1ccccc1)C2=O ?
**A:** -2.65

**Q:** Percent Effect for CC(C)c1ncc2c(n1)CN(Cc1cccc(OCC(N)=O)c1)CC2 ?
**A:** 4.59

**Q:** Percent Effect for CN1[C@H](CN2CCCC2)C[C@@H]2CN(C(=O)c3cccn3C)CC[C@@H]21 ?
**A:** -6.06

**Q:** Percent Effect for CN(C)Cc1cnc2n1CCN(Cc1ccsc1)CC2 ?
**A:** -0.604

**Q:** Percent Effect for c1ccc(-c2noc3c2CN(CC2CC2)CC3)cc1 ?
**A:** 0.0734

**Q:** Percent Effect for CS(=O)(=O)c1ccccc1C(=O)NCCCN1CCc2ccccc2C1 ?
**A:** -11.6

**Q:** Percent Effect for CC(C)N1CCC(Cc2cc(-c3ccccc3C(=O)O)ncn2)CC1 ?
**A:** -7.12

**Q:** Percent Effect for CC(O)CN1CCC(CNCc2ccccc2OC(F)(F)F)CC1 (configuration not stated) ?
**A:** -0.0569

**Q:** Percent Effect for CCN(Cc1cccc2c1OCO2)C(=O)Nc1ccncc1 ?
**A:** 5.59

**Q:** Percent Effect for Cc1noc(C(C)C)c1C(=O)N1CCCN(Cc2cscn2)CC1 ?
**A:** -23.9

**Q:** Percent Effect for Cc1cc(C)n(CC2CCCN2C(=O)c2ccc(C(N)=O)cn2)n1 (configuration not stated) ?
**A:** -27.9

**Q:** Percent Effect for COc1ccc(CCC(=O)Nc2cccnc2N2CCCC2)cc1Br ?
**A:** -2.84

**Q:** Percent Effect for CCc1cnc(CN2CCC(N(C)Cc3noc(C4CC4)n3)C2)o1 (configuration not stated) ?
**A:** 0.446

**Q:** Percent Effect for Cc1ccc(CC(=O)N2Cc3nccn3CC(CN(C)C)C2)cc1 (configuration not stated) ?
**A:** -2.84

**Q:** Percent Effect for Cc1cccc(CN2C[C@@H]3COC[C@]3(COc3ccc(C#N)cn3)C2)n1 ?
**A:** -0.121

**Q:** Percent Effect for CCn1cc(N2Cc3nc(N4CCOCC4)ncc3C2=O)cn1 ?
**A:** -15.2
